Data origin, for the record: ChEMBL document CHEMBL1145738

EXPERIMENTAL_TARGET: Cathepsin B (Homo sapiens)
PROCEDURE_DETAILS: Compound tested for inhibition of human liver Cathepsin B
Non-standard residues stand in square brackets, D forms with d. Residues, ends and D or L forms follow the SMILES beside them. *: point of attachment. Tos = Cc1ccc(S(=O)(=O)*)cc1; Aze = O=C(O)[CH]1CCN1
Ki: recorded values

MOLECULE	Ki [µM]
Cc1ccc(S(=O)(=O)N2CCCC2C(=O)NC(C=O)Cc2ccccc2)cc1 (stereo not drawn) (Tos-Pro-Phe-aldehyde; configuration not given here)	12.1
Cc1ccc(S(=O)(=O)N2CCC2C(=O)NC(C=O)Cc2ccccc2)cc1 (configuration not stated) (Tos-[Aze]-Phe-aldehyde; configuration not given here)	2.75
